target: CDK6/cyclin D3 (Homo sapiens); assay: Assay of kinase activity (ADP-Glo); conditions: kinase inhibitory activity
Sequence (Q00534 whole entry, species assumed): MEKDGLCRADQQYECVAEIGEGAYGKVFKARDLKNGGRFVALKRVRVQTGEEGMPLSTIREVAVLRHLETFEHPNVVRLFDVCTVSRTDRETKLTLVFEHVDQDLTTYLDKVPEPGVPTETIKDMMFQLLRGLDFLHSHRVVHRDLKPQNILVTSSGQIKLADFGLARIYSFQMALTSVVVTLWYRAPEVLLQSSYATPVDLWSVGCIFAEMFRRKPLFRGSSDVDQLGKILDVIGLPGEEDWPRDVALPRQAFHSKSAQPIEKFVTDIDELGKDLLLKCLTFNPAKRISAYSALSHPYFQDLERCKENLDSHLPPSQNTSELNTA
Sequence (P30281 whole entry partner, species assumed): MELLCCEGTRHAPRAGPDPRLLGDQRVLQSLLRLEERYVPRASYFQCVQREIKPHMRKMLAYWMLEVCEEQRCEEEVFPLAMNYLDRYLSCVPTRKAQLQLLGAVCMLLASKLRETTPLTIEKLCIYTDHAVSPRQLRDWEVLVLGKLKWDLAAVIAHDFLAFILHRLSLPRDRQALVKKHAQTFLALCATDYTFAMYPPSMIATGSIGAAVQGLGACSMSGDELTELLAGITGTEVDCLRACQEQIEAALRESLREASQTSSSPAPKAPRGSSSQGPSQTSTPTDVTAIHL
Classification by IC50 | ranges: bottom range = under 4 nM, center range = from 4 nM up to 30 nM, top range = 30 nM and over

1. CC(C)n1nnc2ccc3cnc(Nc4ccc(C(=O)N5CCN(C)[C@@H](C)C5)cc4)nc3c21: center range
2. CC(C)n1nnc2ccc3cnc(Nc4ccc(C(=O)N5CCC(N(C)C)CC5)c(F)c4)nc3c21: top range
3. CC(C)n1nnc2ccc3cnc(Nc4ccc(C(=O)N5CCC(F)CC5)cc4)nc3c21: top range
4. CC(C)N[C@H]1CCN(C(=O)c2ccc(Nc3ncc4ccc5nnn(C(C)C)c5c4n3)cc2)C1: center range
5. CC(C)n1nnc2ccc3cnc(Nc4ccc(C(=O)N5CCC(N(C)C)CC5)cc4)nc3c21: top range
6. CC(C)n1nnc2c(C(F)F)cc3cnc(Nc4ccc(C(=O)N5CC[C@H](N(C)C)C5)cc4)nc3c21: top range
7. CC(C)n1nnc2ccc3cnc(Nc4ccc(C(=O)N5CCN(C)[C@H](C)C5)cc4)nc3c21: center range
8. CC(C)n1nnc2ccc3cnc(Nc4ccc(C(=O)N5C[C@@H](C)N[C@@H](C)C5)cc4)nc3c21: top range
9. CC(C)n1nnc2ccc3cnc(Nc4ccc(C(=O)N5CC6CC(C5)N6)cc4)nc3c21: center range
10. CC(C)N[C@H]1CCN(C(=O)c2ccc(Nc3ncc4ccc5nnn([C@H](C)C(C)(C)O)c5c4n3)cc2)C1: center range
11. C[C@@H](n1nnc2ccc3cnc(Nc4ccc(C(=O)N5CCCNCC5)cc4)nc3c21)C(C)(C)O: bottom range
12. CN[C@@H]1CCN(C(=O)c2ccc(Nc3ncc4ccc5nnn(C(C)C)c5c4n3)cc2)C1: bottom range
13. CC(C)n1nnc2ccc3cnc(Nc4ccc(C(=O)N5CC[C@H](N)[C@H](O)C5)cc4)nc3c21: top range
14. CN(C)[C@H]1CCN(C(=O)c2ccc(Nc3ncc4ccc5nnn(C6CCCC6)c5c4n3)cc2)C1: bottom range
15. C[C@@]1(O)CCC[C@H]1n1nnc2ccc3cnc(Nc4ccc(C(=O)N5CCCNCC5)cc4)nc3c21: bottom range
16. C[C@@]1(O)CCC[C@H]1n1nnc2ccc3cnc(Nc4ccc(C(=O)N5CCS(=O)(=O)CC5)cc4)nc3c21: top range
17. CC(C)n1nnc2ccc3cnc(Nc4ccc(C(=O)N5CC6CCC(C5)N6)cc4)nc3c21: center range

###

target: CDK2/cyclin E (Homo sapiens, UniProt P24941); test: Assay of kinase activity (ADP-Glo); assay type: biochemical; conditions: kinase inhibitory activity, read-out: CDK2/E1 IC50
metric: IC50 (nM)

1. CC(C)(O)Cn1nnc2ccc3cnc(Nc4ccc(C(=O)N5CCNCC5)cc4)nc3c21: 4
2. CC(C)n1nnc2ccc3cnc(Nc4ccc(C(=O)N5CC[C@@H](O)[C@H](N)C5)cc4)nc3c21: 0.8
3. C[C@@H](n1nnc2ccc3cnc(Nc4ccc(C(=O)N5CCN(C)CC5)cc4)nc3c21)C(C)(C)O: 0.9
4. CC(C)N[C@H]1CCN(C(=O)c2ccc(Nc3ncc4ccc5nnn([C@H](C)C(C)(C)O)c5c4n3)cc2)C1: 0.7
5. C[C@@H](n1nnc2ccc3cnc(Nc4ccc(C(=O)N5CCOCC5)cc4)nc3c21)C(C)(C)O: 1
6. C[C@@H](CO)n1nnc2ccc3cnc(Nc4ccc(C(=O)N5CCNCC5)cc4)nc3c21: 3
7. O=C(c1ccc(Nc2ncc3ccc4nnn(C5CCCC5)c4c3n2)cc1)N1CCCNCC1: 0.08
8. N[C@H]1CCN(C(=O)c2ccc(Nc3ncc4ccc5nnn(C6CCCC6)c5c4n3)cc2)C1: 0.05
9. C[C@@H](n1nnc2ccc3cnc(Nc4ccc(C(=O)N5CCCN(C)CC5)cc4)nc3c21)C(C)(C)O: 0.9
10. CC(C)n1nnc2c(C(F)F)cc3cnc(Nc4ccc(C(=O)N5CCCNCC5)cc4)nc3c21: 0.7
11. CC(C)n1nnc2ccc3cnc(Nc4ccc(C(=O)N5CCS(=O)(=O)CC5)cc4)nc3c21: 3
12. CC(C)n1nnc2ccc3cnc(Nc4ccc(C(=O)N5CCCNCC5)cc4)nc3c21: 0.2
13. CC(C)n1nnc2c(C(F)F)cc3cnc(Nc4ccc(C(=O)N5CC[C@H](N(C)C)C5)cc4)nc3c21: 0.8
14. CC(C)n1nnc2ccc3cnc(Nc4ccc(C(=O)N5C[C@@H](C)N[C@@H](C)C5)cc4)nc3c21: 0.4
15. C[C@@H](CO)n1nnc2ccc3cnc(Nc4ccc(C(=O)N5CCOCC5)cc4)nc3c21: 3
16. C[C@@H](n1nnc2ccc3cnc(Nc4ccc(C(=O)N5CCCNCC5)cc4)nc3c21)C(C)(C)O: 0.8
17. CN[C@H]1CCN(C(=O)c2ccc(Nc3ncc4ccc5nnn(C6CCCC6)c5c4n3)cc2)C1: 0.07
18. C[C@H](CO)n1nnc2ccc3cnc(Nc4ccc(C(=O)N5CCNCC5)cc4)nc3c21: 2

Reference for the values: patent EP4711369A1
